# Test system: OVCAR-8
# PROCEDURE_TEXT: NCI tumour cell line growth inhibition, 48 h
The source made the active and inactive calls. Cut-off read from the data, not from the text of the source: active = GI50 up to about 1.1 µM and inactive = higher.
Pick one: active, inactive

Worked set:
>>> group_label("O=C(O)CSSCC(=O)O")
"inactive"
>>> group_label("CC1(C(=O)O)CCC(C(=O)O)C(C)(C)O1 (stereo unspecified)")
"inactive"
>>> group_label("CCOC(=O)c1cc(C2CCN(c3ccccc3)C2=O)c(C(=O)/C=C(/C)O)[nH]1 (stereo unspecified)")
"inactive"
>>> group_label("COc1ccc(/C=C/C(=O)C(C)C)cc1")
"inactive"
>>> group_label("Cc1cc2c(cc1Cl)SC(NNC(=O)c1ccncc1)=NS2(=O)=O")
"inactive"
>>> group_label("COc1cccc(-c2cc(O)c3cc(N)ccc3n2)c1")
"inactive"
>>> group_label("O=C1OCCC12CN(Cc1ccccc1)N=N2 (stereo unspecified)")
"inactive"
>>> group_label("CCc1cc(Cc2cc(Cl)c(NC(=O)C(=O)C3NC(=O)NC3=O)c(CC)c2)cc(Cl)c1NC(=O)C(=O)C1NC(=O)NC1=O (stereo unspecified)")
"inactive"

Enquiry: Per the records of this test, what outcome belongs to COC1=C2C[C@@H](C)C[C@@H](OC)[C@@H](O)[C@H](C)/C=C(\C)[C@@H](OC(N)=O)[C@H](OC)/C=C\C=C(/C)C(=O)NC(=CC1=O)C2=O ?
Return: active

Enquiry: Per the records of this test, what outcome belongs to CN(C(=O)c1ccccc1)c1ccc2c(c1)C(=O)c1ccccc1C2=O ?
Return: inactive

Enquiry: Per the records of this test, what outcome belongs to COc1cc(C2c3cc4c(cc3OC(NNC(N)=O)C2C)OCO4)cc(OC)c1O (stereo unspecified) ?
Return: inactive
